B1: TPR 5TU (parent)
chain: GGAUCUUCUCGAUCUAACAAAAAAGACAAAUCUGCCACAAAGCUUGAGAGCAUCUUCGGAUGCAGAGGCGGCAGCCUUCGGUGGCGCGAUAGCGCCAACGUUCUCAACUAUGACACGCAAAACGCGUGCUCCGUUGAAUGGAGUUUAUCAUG

# Variants of: B1
# test_name: polymerase ribozyme fitness, log enrichment relative to wild type (log ratio); higher = more active; in vitro selection for triplet polymerase activity
Fewer inactive variants are shown than the library holds.
Quick rule: polymerase ribozyme fitness (log ratio) of at least -2 means 1 (yes), below that means 0 (no).

>>> class_assignment("G65U G71C A73U A122U G126A A137C U146A")
"0 (no)"
>>> class_assignment("A24G C93U")
"0 (no)"
>>> class_assignment("G11A A17C A49C C85U A91U G136U")
"0 (no)"
>>> class_assignment("A20U C32U U56A A142U")
"0 (no)"
>>> class_assignment("A23C G25A U55A U61G G68A G92U A97U G124A G128C")
"0 (no)"
>>> class_assignment("C32G A49U G74U U77G A89U")
"0 (no)"
>>> class_assignment("U45A C69A G88C A97C C125G")
"0 (no)"
>>> class_assignment("C72U A122G")
"1 (yes)"
>>> class_assignment("A19U G48A")
"1 (yes)"
>>> class_assignment("C5G A21G U55A C57U A147C")
"1 (yes)"
>>> class_assignment("G50A G84U")
"1 (yes)"
>>> class_assignment("U55G A60G C69U A91G U144A")
"0 (no)"
>>> class_assignment("A19U A47C U55G C87U G92U U101C")
"0 (no)"
>>> class_assignment("C54G C85U C99G")
"0 (no)"
>>> class_assignment("A37C A64C G71A C85A G126C")
"0 (no)"
>>> class_assignment("C38A U56A G86C")
"0 (no)"
>>> class_assignment("A16G G48U G133U")
"0 (no)"
>>> class_assignment("A52C U55A U82C")
"0 (no)"
>>> class_assignment("G83A U90G G94C A110G G152U")
"0 (no)"
>>> class_assignment("A121U U145C")
"1 (yes)"
>>> class_assignment("A40C C54A A89U G94U")
"0 (no)"
>>> class_assignment("C32G G59C C87G")
"0 (no)"
>>> class_assignment("A19G A73G C85A")
"1 (yes)"
>>> class_assignment("A41C G65A C93U G94U C103G")
"0 (no)"
>>> class_assignment("U82G C99G")
"1 (yes)"
>>> class_assignment("C10U G50A U55G A91G G143C")
"0 (no)"
>>> class_assignment("C76G G92U A121G G143U")
"0 (no)"
>>> class_assignment("G94U C129G A147U")
"0 (no)"
>>> class_assignment("A37G C93U G117A G128A")
"0 (no)"
>>> class_assignment("U61A A147U")
"1 (yes)"
>>> class_assignment("C32U C54U")
"1 (yes)"
>>> class_assignment("C85U G141C")
"1 (yes)"
>>> class_assignment("G86C U104A")
"0 (no)"
>>> class_assignment("A47G G74A U101G A121C U145C")
"0 (no)"
>>> class_assignment("A47C G92U C105U C131G")
"0 (no)"
>>> class_assignment("A37C C105U")
"1 (yes)"
>>> class_assignment("U4C U55A")
"1 (yes)"
>>> class_assignment("A17C A40G C54A G83A G124A")
"0 (no)"
>>> class_assignment("A120G G128U")
"0 (no)"
>>> class_assignment("U15A A19U C57G G86A")
"1 (yes)"
>>> class_assignment("A3G C87U C132G")
"0 (no)"
>>> class_assignment("A73G C87G U146G")
"0 (no)"
>>> class_assignment("C5A C27U")
"1 (yes)"
>>> class_assignment("U31A U53A C95U A119G")
"1 (yes)"
>>> class_assignment("U6A U90G C95U U109G A137C")
"0 (no)"
>>> class_assignment("A47G A52G C87U A98G")
"1 (yes)"
